B1: library; a variant is named by its letters at X, in order (parent)
chain: MNIQIGELAKRTACPVVTIRFYEQEGLLPPPGRSRGNFRLYGEEHVERLQFIRHCRSLDMPLSXVRTLLSYRKRPDQDCGEVXMLLDEHXRQVESRIGALLELXHXLVELREACSGARPAQSCGILQGLSDCVCDTRGTTAHXSD

variants of: B1; test: sfGFP reporter fluorescence (15 h) (µM FITC); higher = higher leak; conditions: library round: Round 3b; ligand: none
attribute-measured: sfGFP reporter fluorescence
# answer = number (no unit)

Past entries and their recorded results:
- variant-label: "KFATAR"
  sfGFP reporter fluorescence: 0.0492
- variant-label: "DNAVAT"
  sfGFP reporter fluorescence: 0.0419
- variant-label: "DIAVER"
  sfGFP reporter fluorescence: 0.0436
- variant-label: "DFATHT"
  sfGFP reporter fluorescence: 0.0408
- variant-label: "DIAKAT"
  sfGFP reporter fluorescence: 0.0356
- variant-label: "DNIKHP"
  sfGFP reporter fluorescence: 0.043
- variant-label: "KFATAP"
  sfGFP reporter fluorescence: 0.0501
- variant-label: "KFITAT"
  sfGFP reporter fluorescence: 0.0473
- variant-label: "KFITAP"
  sfGFP reporter fluorescence: 0.0485
- variant-label: "KIIVET"
  sfGFP reporter fluorescence: 0.0535

Here is the next item to consider.
Data request: Provide measured sfGFP reporter fluorescence value, entry: `KFAVEP`
Data returned: 0.0452

Reference for the values: the supplement of paper PMC12783771
